tgt: T1, human TNFR2 (Novoprotein, Cat #C830) (human, UniProt P20333 23-257, limits assumed)
T1 construct: construct not described; also called human TNFR2 protein
T1 sequence (looked up): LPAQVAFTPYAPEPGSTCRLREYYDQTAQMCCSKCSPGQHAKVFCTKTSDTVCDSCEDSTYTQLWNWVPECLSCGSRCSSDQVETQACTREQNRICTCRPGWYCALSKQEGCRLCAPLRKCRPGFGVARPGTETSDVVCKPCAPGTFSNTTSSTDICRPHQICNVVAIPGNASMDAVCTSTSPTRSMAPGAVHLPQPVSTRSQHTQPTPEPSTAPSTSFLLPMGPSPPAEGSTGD
method-summary: competition ELISA, competitor human TNFα-Biotin; AUC against 219-WT
Reported % Relative activity (WT antibody/test antibody) values are given for each entry in this list.
measured-property: % Relative activity (WT antibody/test antibody) (%)

[[record]]
binder = "219-Hu4 (antibody, V domains shown, also called VH6 + VL5) VH: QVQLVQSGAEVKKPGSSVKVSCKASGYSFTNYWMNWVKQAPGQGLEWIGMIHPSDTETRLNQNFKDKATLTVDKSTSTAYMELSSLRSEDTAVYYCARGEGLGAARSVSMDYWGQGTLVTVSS VL: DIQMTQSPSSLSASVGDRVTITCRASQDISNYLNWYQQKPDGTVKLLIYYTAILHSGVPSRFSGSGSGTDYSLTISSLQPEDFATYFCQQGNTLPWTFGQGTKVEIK"
value_units = "%"
experimental_result = 105

[[record]]
binder = "219-Hu2 (antibody, V domains shown, also called VH4 + VL5) VH: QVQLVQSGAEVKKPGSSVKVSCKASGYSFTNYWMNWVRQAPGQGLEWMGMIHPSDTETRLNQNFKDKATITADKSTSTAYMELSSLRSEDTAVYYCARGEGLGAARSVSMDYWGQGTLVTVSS VL: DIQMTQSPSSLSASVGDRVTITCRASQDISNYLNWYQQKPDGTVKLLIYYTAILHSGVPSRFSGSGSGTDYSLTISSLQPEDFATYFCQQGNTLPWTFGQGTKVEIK"
value_units = "%"
experimental_result = 104

[[record]]
binder = "219-Hu3 (antibody, V domains shown, also called VH5 + VL5) VH: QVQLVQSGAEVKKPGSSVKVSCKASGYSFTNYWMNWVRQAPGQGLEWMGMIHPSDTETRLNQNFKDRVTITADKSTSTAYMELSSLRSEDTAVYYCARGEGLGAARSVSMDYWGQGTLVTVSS VL: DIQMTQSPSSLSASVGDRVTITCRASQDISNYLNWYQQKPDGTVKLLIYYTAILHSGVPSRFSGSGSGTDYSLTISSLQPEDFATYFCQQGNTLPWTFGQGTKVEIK"
value_units = "%"
experimental_result = 103

